- TARGET_OF_ASSAY: 5-hydroxytryptamine receptor 2C (Rattus norvegicus, UniProt P08909)
- Sequence (P08909 whole entry): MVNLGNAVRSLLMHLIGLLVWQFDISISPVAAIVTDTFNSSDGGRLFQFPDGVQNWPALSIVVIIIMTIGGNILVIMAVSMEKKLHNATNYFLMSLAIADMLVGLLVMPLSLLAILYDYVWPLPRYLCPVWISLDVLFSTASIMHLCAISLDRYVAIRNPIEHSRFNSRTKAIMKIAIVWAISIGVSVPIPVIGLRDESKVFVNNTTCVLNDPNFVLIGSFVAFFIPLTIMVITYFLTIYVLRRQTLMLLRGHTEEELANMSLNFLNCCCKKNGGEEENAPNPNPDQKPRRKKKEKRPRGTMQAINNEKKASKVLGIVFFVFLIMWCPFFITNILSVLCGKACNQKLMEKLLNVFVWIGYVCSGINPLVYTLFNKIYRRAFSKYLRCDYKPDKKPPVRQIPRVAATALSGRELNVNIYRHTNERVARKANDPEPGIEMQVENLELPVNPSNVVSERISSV
- TEST_METHOD_NOTES: Binding affinity towards 5-hydroxytryptamine 1C receptor from frontal cortical regions of male Sprague-Dawley rat homogenates, using [3H]mesulergine as radioligand
Below, each entry is listed alongside its reported Ki.
Note: unit nM is implicit; provide only the numeric part.

# count of solved cases: 2
In [3]: df
Out[3]:
                                  compound  unit_of_measure  reported_result
0  CNC(C)Cc1ccc(C)cc1OC (stereo not drawn)               nM             1480
1  COc1cc(Br)ccc1CC(C)N (stereo not drawn)               nM              100

Proceed to the following item.
**Query** Look up and state reported Ki for COc1ccc(CC(C)N)c(OC)c1 (stereo not drawn)
**Result** 4480

---

- TARGET_OF_ASSAY: 5-hydroxytryptamine receptor 2C (Rattus norvegicus, UniProt P08909)
- TEST_METHOD_NOTES: Compound was tested for binding affinity towards 5-hydroxytryptamine 1C receptor from frontal cortical regions of male Sprague-Dawley rat homogenates, using [3H]mesulergine as radioligand
ENDPOINT_NAME: Ki (nM)
Give the value, in units of nM, as a plain number.

In [3]: df
Out[3]:
                                   compound  endpoint_name  unit_of_measure  reported_result
0  CC(N)Cc1ccc(OC(=O)c2ccccc2)cc1 (centres undefined)             Ki               nM             1210

Then there is this compound:
**Query** Name the recorded Ki of the compound listed here: CCCc1ccc(CC(C)N)cc1 (centres undefined)
**Result** 1250

---

- TARGET_OF_ASSAY: Serotonin 2 (5-HT2) receptor (Rattus norvegicus, UniProt P30994+P08909+P14842)
- TEST_METHOD_NOTES: Binding affinity towards 5-hydroxytryptamine 2 receptor from frontal cortical regions of male Sprague-Dawley rat homogenates, using [3H]ketanserin as radioligand
# note: exactly 800 nM is not below, so it is n; use y for Ki strictly under it

>>> print(df.to_string())
                                   compound  qualitative_label
0  CCOc1ccc(CC(C)N)cc1 (stereo unspecified)                  n
1                          COc1cc(C)ccc1CCN                  n
2                         COc1cc(Br)ccc1CCN                  n
3  COc1cc(I)ccc1CC(C)N (stereo unspecified)                  y
4  COc1cc(Br)ccc1CC(C)N (stereo unspecified)                  n

**Query** Quick check: Ki of COc1cccc(Br)c1CC(C)N (stereo unspecified) under 800 nM?
**Result** n

**Query** Determine if CCCNC(C)Cc1cc(OC)c(Br)cc1OC (stereo unspecified) shows Ki strictly lower than 800 nM.
**Result** n

**Query** Say whether its Ki is strictly beneath 800 nM. Entry: COc1ccc(CC(C)N)c(OC)c1 (stereo unspecified)
**Result** n

**Query** Hello, is Ki of the following compound strictly smaller than 800 nM? CCCc1ccc(CC(C)NC)cc1 (stereo unspecified)
**Result** n

**Query** Please indicate whether the reported Ki of CNC(C)Cc1cc(OC)c(Br)cc1OC (stereo unspecified) is strictly below 800 nM.
**Result** y

**Query** I'd appreciate it if you could check whether COc1cc(C)ccc1CC(C)N (stereo unspecified) has Ki smaller than 800 nM.
**Result** n

---

// values below are reported Selectivity
- TARGET_OF_ASSAY: Serotonin 2 (5-HT2) receptor (Rattus norvegicus) (UniProt P30994+P08909+P14842)
- TEST_METHOD_NOTES: 5-HT1C selectivity was defined as the ratio between Ki(5-HT2)/Ki(5-HT1C)
- Assay type: protein assay
The answer should be a number; do not append a unit.

Recorded Selectivity, per entry:
>>> print(df.to_string())
                                   molecule  reported_result
0  CCCc1ccc(CC(C)NC)cc1 (stereo unspecified)                1
1  COc1cc(Br)ccc1CC(C)N (stereo unspecified)                8

Next molecule, please.
**Query** Please indicate Selectivity recorded for CCCc1ccc(CC(C)N)cc1 (stereo unspecified)
**Result** 2

---

- TARGET_OF_ASSAY: 5-hydroxytryptamine receptor 2C (Rattus norvegicus)
- Sequence (P08909 whole entry): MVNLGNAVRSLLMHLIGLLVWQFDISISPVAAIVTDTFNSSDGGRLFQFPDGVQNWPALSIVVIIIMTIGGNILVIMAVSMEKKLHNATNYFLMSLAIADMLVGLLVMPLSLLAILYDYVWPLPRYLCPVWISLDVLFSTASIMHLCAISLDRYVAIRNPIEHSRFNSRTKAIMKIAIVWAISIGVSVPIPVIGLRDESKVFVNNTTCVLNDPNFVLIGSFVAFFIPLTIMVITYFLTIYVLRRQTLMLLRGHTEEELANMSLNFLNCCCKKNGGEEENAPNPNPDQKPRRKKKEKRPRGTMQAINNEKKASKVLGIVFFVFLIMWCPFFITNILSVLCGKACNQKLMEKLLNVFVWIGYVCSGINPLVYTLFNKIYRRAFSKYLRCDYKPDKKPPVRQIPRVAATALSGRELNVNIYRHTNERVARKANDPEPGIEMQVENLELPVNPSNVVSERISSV
- TEST_METHOD_NOTES: Binding affinity towards 5-hydroxytryptamine 1C receptor from frontal cortical regions of male Sprague-Dawley rat homogenates, using [3H]mesulergine as radioligand
In plain terms, low Ki, meaning strictly below 0.2 µM, gives 1, and everything else gives -1.

Check out these entries, answers already filled in.
                                   compound                           target_of_assay  qualitative_label
0  CCCCc1cc(OC)c(CC(C)N)cc1OC (stereo not given)  5-hydroxytryptamine receptor 2C (Rattus norvegicus)                  1
1  CCCc1cc(OC)c(CC(C)N)cc1OC (stereo not given)  5-hydroxytryptamine receptor 2C (Rattus norvegicus)                  1

**Query** Check if Ki falls below 0.2 µM for COc1cc(C)ccc1CCN .
**Result** 1

**Query** Dear reviewer, please state whether CC(N)Cc1ccc(Br)cc1 (stereo not given) has Ki strictly beneath 0.2 µM.
**Result** -1

**Query** Does CCCNC(C)Cc1cc(OC)c(Br)cc1OC (stereo not given) have Ki strictly under 0.2 µM?
**Result** -1

**Query** Criterion: Ki strictly below 0.2 µM. Is it met by CCOc1cc(OC)c(CC(C)N)cc1OC (stereo not given) ?
**Result** -1

**Query** Field: below-cutoff. Rule: recorded Ki strictly less than 0.2 µM. Subject: COc1cc(Br)ccc1CCN
**Result** -1

**Query** Quick check: Ki of CCCc1ccc(CC(C)NC)cc1 (stereo not given) under 0.2 µM?
**Result** -1

**Query** Is it true that Ki reported for COc1cc(C)ccc1CC(C)N (stereo not given) is less than 0.2 µM?
**Result** -1

**Query** Ki strictly < 0.2 µM for this compound? COc1cc(CC(C)N)c(OC)cc1I (stereo not given)
**Result** 1

**Query** A record lists COc1cc(I)ccc1CC(C)N (stereo not given) . Is its Ki below 0.2 µM?
**Result** 1

**Query** Criterion: Ki strictly below 0.2 µM. Is it met by COc1ccc(OC)c(CC(C)N)c1 (stereo not given) ?
**Result** -1

**Query** Given the entry CCCOC(=O)c1cc(OC)c(CC(C)N)cc1OC (stereo not given) , would its reported Ki be below 0.2 µM?
**Result** -1

**Query** Is 0.2 µM strictly greater than the compound's reported Ki? compound: COc1cccc(Br)c1CC(C)N (stereo not given)
**Result** -1

**Query** Could you please tell me whether Ki recorded for CNC(C)Cc1cc(OC)c(Br)cc1OC (stereo not given) is less than 0.2 µM?
**Result** 1

Data origin, for the record: ChEMBL document CHEMBL1125379
